Recorded growth inhibition by entry
Test: NCI Yeast Anticancer Drug Screen. Data for the bub3 strain (AID 167)
Conditions: S. cerevisiae bub3 mutant strain, at 50.0 µM (retest, dose inferred, filed as 5.0), active compounds read high
Compounds without any hit were thinned out: in the full panel of roughly 79,000, 15% have a hit.
Quick note: give the figure in %, leave out the unit.

# annotated cases, reported growth inhibition shown
CCNc1ncnc2c1ncn2Cc1ccco1
1
Clc1ccc(C2=NCON=C2c2ccc(Cl)cc2)cc1
99
Oc1cc(Cl)cc2c1-c1ccc(Cl)cc1C2O (stereo not given)
97

For the molecule CC/C(=C\c1cccc(OC)c1)c1ccncc1 , what growth inhibition is on record?
89

// next record C/C(=N\NC(=S)N1CCN(c2ccccc2)CC1)c1nccs1
99

// next record COc1ccc(/C=N/N=c2\[nH][nH]/c(=N\N=C\c3ccc(OC)c4ccccc34)c3ccccc23)c2ccccc12
78

Cited source: PubChem BioAssay (NCI)
